assay: mouse plasma protein binding; type: in vitro ADME; settings: pH 7.4, read-out: mouse plasma fu
PROPERTY LABEL: fraction unbound at 6 h, 5 µM

1) Cc1cc(OC(F)(F)F)ccc1CNC(=O)c1ccc2ncnn2c1 [Compound 19a] = 0.1
2) O=C(NCc1ccc(Br)cc1Cl)c1ccc(-c2ncn[nH]2)cc1 [Compound 14a] = 0.022
3) O=C(NCc1ccc(OC(F)(F)F)cc1F)c1ccc2ncnn2c1 [Compound 19b] = 0.24

Origin of measurements: paper PMC11887051
